Overview of reported Kp across a group of compounds:
Assay: PET imaging studies in rhesus monkeys
Conditions: rhesus monkey, in vivo, Distribution volume (VT), Putamen; 1T model
Quick one: just the number, no unit, thanks!

compound	Kp
Cc1cnccc1CN1CC(c2cc(F)cc(F)c2)CC1=O (stereo not drawn) [^18F-5]	32.8
Cc1cnccc1CN1CC(c2cccc(F)c2)CC1=O (stereo not drawn) [^18F-11]	13.6

Kindly review the next compound as well.
// lookup Kp for O=C1CC(c2cc(F)c(F)c(F)c2)CN1Cc1ccncc1F (stereo not drawn) [^18F-10] 14
